# target or test system: human CLDN6 fused to GFP, expressed on engineered HEK293T cells (human) (UniProt P56747)
# experiment summary: FACS dose curve, labelled mAb, HEK293T-CLDN6-mGFP cells
quantity name: pEC50
Lab note — pEC50 values are minus log10 of concentrations in M.

AB18 (antibody, V domains shown) VH: QVQLKQSGPELEKPGASVKISCKASGYSFTGYNMNWVKQSNGKSLEWIGNIDPYYGGSTYNQKFTGKATLTVDKSSSTAYMQLKSLTSEDSAVYYCARERSGYVFSAMDYWGQGTSVTVSS VL: NIMMTQSPSSLAVSAGEKVTMSCKSSQSVLFSSNQKNYLAWYQQKPGQSPRLLIYWASTRESGVPDRFTGSGSGTDFTLTISNVQAEDLAVYYCHQYLSSRTFGAGTKLELK
5.30

The record that follows has no pEC50 shown yet.
Problem: State the recorded pEC50 for this entry: AB5 (antibody, V domains shown) VH: EVQLQQSGPELVKPGASVKMSCKASGYIFTHYIMHWVKQKPGQGLEWIGCINPYNDGTKYNEKFKGKATLTSDKSSSTAYMELSSLTSEDSAVYYCARYYGYPYYSMDYWGQGTSVTVSS VL: DVLMTQTPLSLPVSLGDQPSISCRSSQSIVHSNGNTYLDWYLQKPGQSPKLLIYKVSNRFSGVPDRFSGSGSGTDFTLKISRVEAEDLGVYYCFQGSHVPFTFGSGTRLEIK
Result: 8.00
